Tested on: Rattus norvegicus
Assay: AUC (0 to infinity) in Sprague-Dawley rat at 1 mg/kg, iv administered as bolus dose by LC-MS/MS method
Assay type: ADME, organism-based
Parameters: dose 1 mg/kg, time infinity, route intravenous
Settings: in vivo
reported.property: AUC (ng·h/mL)
Unit ng·h/mL implied. Number only.

Lookup: What is its AUC for Rattus norvegicus? Entry: CN(C)CCn1cc(-c2ccn3c(-c4ccc(C(N)=O)c(OCc5cccc(C(F)(F)F)c5)c4)cnc3c2)cn1
Found: 268

Lookup: Let us now turn to CN(C)CCn1cc(-c2ccn3c(-c4ccc(C(N)=O)c(OCc5ccccc5)c4)cnc3c2)cn1
Found: 405

New cases:
Lookup: What is its AUC for Rattus norvegicus? Entry: CN(C)CCn1cc(-c2ccn3c(-c4ccc(C(N)=O)c(OCc5cccc(F)c5)c4)cnc3c2)cn1
Found: 507

====

Target: Glycogen synthase kinase-3 beta (Homo sapiens)
Sequence (P49841 whole entry): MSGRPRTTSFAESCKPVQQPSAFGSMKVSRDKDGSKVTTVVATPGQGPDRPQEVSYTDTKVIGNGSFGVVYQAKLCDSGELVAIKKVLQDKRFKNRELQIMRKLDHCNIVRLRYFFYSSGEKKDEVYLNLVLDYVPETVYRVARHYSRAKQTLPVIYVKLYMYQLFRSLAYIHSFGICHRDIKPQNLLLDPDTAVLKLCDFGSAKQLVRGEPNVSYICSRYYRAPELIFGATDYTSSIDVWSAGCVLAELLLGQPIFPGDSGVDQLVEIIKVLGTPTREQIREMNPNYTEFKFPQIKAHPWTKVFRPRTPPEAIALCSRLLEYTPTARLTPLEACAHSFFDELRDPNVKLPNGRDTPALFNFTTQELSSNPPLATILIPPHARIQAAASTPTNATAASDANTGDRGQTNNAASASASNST
reported.property: pIC50
Scale: pIC50 equals -log10([C]), with [C] in mol/L.

Lookup: Name the recorded pIC50 for CN(C)CCn1cc(-c2ccn3c(-c4ccc(C(N)=O)c(OCc5cccc(F)c5)c4)cnc3c2)cn1 .
Found: 7.04

Cited source: ChEMBL document CHEMBL4002599
